The measured values listed here are drawn from the supplement of paper PMC12067926.

# System: Aeromonas 2 (Aeromonas sobria)
# experimental.details: relative growth (AUC of 72 h growth curve relative to DMSO control, dAUC) (ratio); higher = more growth (less inhibition), active = hit call of the paper
# conditions: 20 µM
reported.endpoint: relative growth
// return just the number, without any unit appended

Prompt: Give its relative growth value. Item: CC1(C)C(C=C(Cl)Cl)C1C(=O)OC(C#N)c1ccc(F)c(Oc2ccccc2)c1 (stereo not given)
Completion: 1

Prompt: Again, but for Cc1cc(C)nc(Nc2ccccc2)n1
Completion: 0.977

Prompt: Again, but for CC1(C)[C@H](/C=C(\Cl)C(F)(F)F)[C@@H]1C(=O)OC(C#N)c1cccc(Oc2ccccc2)c1 (stereo not given in full)
Completion: 0.993

Prompt: Again, but for CC(C)N(C)S(=O)(=O)NC(=O)c1cc(-n2c(=O)cc(C(F)(F)F)n(C)c2=O)c(F)cc1Cl
Completion: 1.02

Prompt: Again, but for COc1ccc(C(=CC(=O)N2CCOCC2)c2ccc(Cl)cc2)cc1OC (mixture of isomers)
Completion: 0.993
